Run description: Metabolic stability in mouse liver microsomes assessed as compound remaining after 1 hr
Type: ADME, Microsome
Run parameters: read-out: Stabilty
Value type: remaining at 1 h (%)

Some solved entries appear below for comparison.
Q. Dear colleague, I am looking for the recorded remaining at 1 h of the following compound: "COc1ccc(F)c(-c2ccc(-n3cc(-c4cccc(C(=O)[O-])c4)nn3)cc2)c1.[Na+]"
A. 93

Q. Dear colleague, I am looking for the recorded remaining at 1 h of the following compound: "COc1cccc(-c2ccc(-n3cc(-c4cccc(C(=O)[O-])c4)nn3)cc2)c1.[Na+]"
A. 91

Q. Dear colleague, I am looking for the recorded remaining at 1 h of the following compound: "COc1cc(OC)cc(-c2ccc(-n3cc(-c4cccc(C(=O)[O-])c4)nn3)cc2)c1.[Na+]"
A. 92

a: O=C([O-])c1cccc(-c2cn(-c3ccc(-c4ccc5c(c4)OCCO5)cc3)nn2)c1.[Na+]
b: COc1ccc(OC)c(-c2ccc(NC(=O)c3ccncc3F)cc2)c1
Q. Given the two records a and b , choose the one whose remaining at 1 h value is lower. Identify your pick by its label.
A. b

Data provenance is ChEMBL document CHEMBL4673335.
